The measured values listed here are drawn from patent US20260069689A1.

target: SARS-COV-2 RBD extracellular domain expressed with a C-terminal myc-myc-hexahistidine tag (SARS-CoV-2); assay: SPR (Biacore), mAb captured by anti-human Fc, RBD-mmH in solution, 25 C
measurement_name: t½ (min)
Output spec: scalar in min, unitless text.

1) mAb14289 (antibody, V domains shown) VH: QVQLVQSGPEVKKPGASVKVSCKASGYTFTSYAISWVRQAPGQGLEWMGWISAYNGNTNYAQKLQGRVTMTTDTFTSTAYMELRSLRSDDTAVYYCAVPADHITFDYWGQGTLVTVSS VL: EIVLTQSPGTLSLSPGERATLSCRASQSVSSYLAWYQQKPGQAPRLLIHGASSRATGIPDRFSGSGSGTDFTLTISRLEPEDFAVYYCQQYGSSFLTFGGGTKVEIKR = 7.3

Consider now this further binder.
Would you mind telling me what t½ value was observed for mAb15157 (antibody, V domains shown) VH: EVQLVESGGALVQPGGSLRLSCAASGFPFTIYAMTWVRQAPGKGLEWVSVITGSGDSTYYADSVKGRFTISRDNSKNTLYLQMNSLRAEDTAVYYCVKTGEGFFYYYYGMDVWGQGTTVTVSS VL: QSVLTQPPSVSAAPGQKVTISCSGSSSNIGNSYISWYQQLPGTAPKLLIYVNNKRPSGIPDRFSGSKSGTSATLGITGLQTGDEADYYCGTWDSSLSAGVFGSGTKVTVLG ?
9.3
